Tested on: HeLa Kyoto;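 further: HeLa Kyoto cells arrested at G1/S by double thymidine block, proteins quantified by TMT10plex mass spectrometry in mild NP-40 versus SDS extracts, three biological replicates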
Assay Comment: solubility in G1/S (NP-40 vs SDS abundance) (log2 ratio); higher = more soluble
Experimental Setup: cell cycle stage: G1/S
Assay Endpoint: solubility in G1/S (log2)
Form field (numeric): enter value without unit.

q: GET /values?readout=solubility in G1/S (log2)&item= MASTSYDYCRVPMEDGDKRCKLLLGIGILVLLIIVILGVPLIIFTIKANSEACRDGLRAVMECRNVTHLLQQELTEAQKGFQDVEAQAATCNHTVMALMASLDAEKAQGQKKVEELEGEITTLNHKLQDASAEVERLRRENQVLSVRIADKKYYPSSQDSSSAAAPQLLIVLLGLSALLQ [BST2]
a: -0.713

q: Entry to check: MEKLYSENEGMASNQGKMENEEQPQDERKPEVTCTLEDKKLENEGKTENKGKTGDEEMLKDKGKPESEGEAKEGKSEREGESEMEGGSEREGKPEIEGKPESEGEPGSETRAAGKRPAEDDVPRKAKRKTNKGLAHYLKEYKEAIHDMNFSNEDMIREFDNMAKVQDEKRKSKQKLGAFLWMQRNLQDPFYPRGPREFRGGCRAPRRDIEDIPYV [TCEAL4]
a: 0.49

q: Then what about the sequence MFTSTGSSGLYKAPLSKSLLLVPSALSLLLALLLPHCQKLFVYDLHAVKNDFQIWRLICGRIICLDLKDTFCSSLLIYNFRIFERRYGSRKFASFLLGSWVLSALFDFLLIEAMQYFFGITAASNLPSGFLAPVFALFVPFYCSIPRVQVAQILGPLSITNKTLIYILGLQLFTSGSYIWIVAISGLMSGLCYDSKMFQVHQVLCIPSWMAKFFSWTLEPIFSSSEPTSEARIGMGATLDIQRQQRMELLDRQLMFSQFAQGRRQRQQQGGMINWNRLFPPLRQRQNVNYQGGRQSEPAAPPLEVSEEQVARLMEMGFSRGDALEALRASNNDLNVATNFLLQH [UBAC2] ?
a: -0.173

Numbers sourced from the supplement of paper PMC5998384.
